target: TP53RK (Homo sapiens, UniProt Q96S44); assay: biochemical; design: species or system HEK293/K-562/placenta mixed human extract; Kinobeads chemoproteomic competition binding, quantified by TMT LC-MS/MS, dose response up to 20 uM
Sequence (Q96S44 whole entry): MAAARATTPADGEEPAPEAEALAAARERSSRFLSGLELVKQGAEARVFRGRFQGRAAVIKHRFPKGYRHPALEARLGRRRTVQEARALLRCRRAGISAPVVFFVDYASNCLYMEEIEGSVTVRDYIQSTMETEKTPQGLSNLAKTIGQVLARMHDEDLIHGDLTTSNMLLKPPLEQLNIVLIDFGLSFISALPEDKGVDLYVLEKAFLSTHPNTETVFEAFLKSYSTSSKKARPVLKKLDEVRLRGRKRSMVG
readout kind: IC50

Enquiry: Entry under review: COc1nc(N[C@H]2CC[C@H](NS(=O)(=O)CC(C)C)CC2)nc2[nH]nc(N3CCOC[C@H]3C)c12 . Reported IC50?
Return: ≥ 20 µM

====

target: MAPK11 (Homo sapiens, UniProt Q15759); assay: biochemical; set-up: species or system HEK293/K-562/placenta mixed human extract; Kinobeads chemoproteomic competition binding, quantified by TMT LC-MS/MS, dose response up to 20 uM
Sequence (Q15759 whole entry): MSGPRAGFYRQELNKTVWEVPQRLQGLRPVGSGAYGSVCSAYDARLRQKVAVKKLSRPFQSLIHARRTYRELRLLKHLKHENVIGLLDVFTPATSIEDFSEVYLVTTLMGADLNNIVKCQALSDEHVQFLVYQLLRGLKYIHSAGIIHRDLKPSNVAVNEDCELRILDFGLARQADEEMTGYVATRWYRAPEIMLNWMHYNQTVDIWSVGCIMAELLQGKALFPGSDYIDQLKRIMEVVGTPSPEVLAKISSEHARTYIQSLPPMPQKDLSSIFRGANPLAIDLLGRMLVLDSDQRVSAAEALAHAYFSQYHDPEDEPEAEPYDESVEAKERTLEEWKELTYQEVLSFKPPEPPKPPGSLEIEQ
readout kind: IC50

Enquiry: Entry under review: COc1ccccc1-c1n[nH]c2nc(N[C@H]3CC[C@H](NS(=O)(=O)CCC(F)(F)F)CC3)nc(OC)c12 . Reported IC50?
Return: ≥ 20 µM

Value source: paper PMC6407917
